The measurements presented in this section are drawn from paper PMC5540273.

- System: MYLK4;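 also: KINOMEscan kinase panel screen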
- Condition set: concentration: 1 μM, replicates: in singlicate; n = 1
Measured %Inh, listed per entry.
Assay readout: %Inh (%)

>>> print(df.to_string())
                         structure_notation  units_of_measure  result
0  Cc1cccc(-c2nc(-c3ccc(S(C)(=O)=O)cc3)sc2-c2ccnc(NCCc3ccccc3)c2)c1                 %      12
1  O=C(Nc1n[nH]c2cc(-c3cccc(F)c3F)ccc12)C1CC1                 %       0
2  Cc1ccc(NC(=O)Nc2cc(C(C)(C)C)nn2-c2ccccc2)cc1                 %       4
3  Cc1c(O)cccc1Nc1ccnc2ccc(C(F)(F)F)cc12.Cl                 %       0
4     Cc1cccc(-c2nc(Nc3ccncc3)c3ccccc3n2)n1                 %       7
5  CC(C)(C)c1ccc(C(=O)Nc2cn3cc(Cl)ccc3n2)cc1                 %       0
6  Cl.O=C(Nc1cccc(-c2nn3ncccc3c2-c2ccnc(Nc3cccnc3)n2)c1)c1c(F)cccc1F                 %       1
7  Cc1cc(NCC(c2ccccc2)c2ccccc2)nc(NCc2ccc(C(F)(F)F)cc2)n1                 %       0
8  Fc1cc(Cl)ccc1Nc1ccnc2cc(-c3ccc(CN4CCCCC4)o3)ccc12                 %       5
